- System: SNB-75 CNS
- method description: NCI tumour cell line growth inhibition, 48 h; in the data active = GI50 below about 0.43 µM; inactive = the rest
Labels: active, inactive

>>> label_value("O=C(Nc1ccncc1)C(=O)c1cn(Cc2ccc(Cl)cc2)c2ccccc12")
"active"
>>> label_value("Cc1cc(Cl)ccc1Nc1nc(C(F)(F)F)ccc1C(=O)N/N=C/c1ccc(Cl)cc1")
"inactive"
>>> label_value("CN[C@H](C#Cc1c(F)ccc2c1/C(=C/c1[nH]ccc1OC)C(=O)N2)CO")
"active"
>>> label_value("N.N.N.N.N.[Cl-].[Co+3].c1ccc(-c2nn[n-]n2)cc1")
"inactive"
>>> label_value("CCN(Cc1ccc(F)cc1)c1ccc(CO)c(F)c1")
"inactive"

---

- Tested on: ACHN renal
- method description: NCI tumour cell line growth inhibition, 48 h; in the data active means GI50 below about 0.43 µM; inactive means the rest
Classes used: active, inactive

>>> label_value("COc1cccc(C2=C(c3c(C)n(C)c4ccccc34)C(=O)NC2=O)c1")
"inactive"
>>> label_value("Nc1nc(N)c2nc(CNc3ccc(C(=O)NC(CC(=O)O)C(=O)O)cc3)cnc2n1 (stereo unspecified)")
"inactive"
>>> label_value("CNC(=O)c1cccc2cc(Oc3ccnc4cc(OCC5(N)CC5)c(OC)cc34)ccc12")
"inactive"
>>> label_value("COc1cc(Nc2c(C#N)cnc3cc(OCCCN4CCN(C)CC4)c(OC)cc23)c(Cl)cc1Cl")
"active"
>>> label_value("CCn1cnc(C[C@H](NC(=O)[C@@H](NC(=O)Nc2cc(C(F)(F)F)cc(C(F)(F)F)c2)C(C)C)C(=O)OC)c1")
"inactive"
>>> label_value("N.N.N.N.N.[Cl-].[Co+3].c1ccc(-c2nn[n-]n2)cc1")
"inactive"
>>> label_value("COC1=CC(c2ccc[nH]2)=N/C1=C\\c1[nH]c(C)c(C(=O)CCCCC(=O)NC(C)(C)C)c1C")
"inactive"
>>> label_value("CCCCCCCCC/C=C/C=C/C(=O)NCC(=O)NC1C(O)C(O)C(Nc2ncnc3nc[nH]c23)OC1C(O)CO (stereo unspecified)")
"active"
>>> label_value("COc1ccc(-c2nc(/C=N/Nc3cc(C)nc4ccc(Cl)cc34)c(C)o2)cc1")
"inactive"
>>> label_value("Cc1cc(C(=C2C=CC(=Nc3ccccc3)C=C2)c2ccc(Nc3ccccc3)cc2)ccc1N")
"active"
>>> label_value("CCN(Cc1ccc(F)cc1)c1ccc(CO)c(F)c1")
"inactive"

---

- System: A498 renal
- method description: NCI tumour cell line growth inhibition, 48 h; in the data active = GI50 below about 0.43 µM; inactive = the rest
Classes used: active, inactive

>>> label_value("COc1cc(Nc2c(C#N)cnc3cc(OCCCN4CCN(C)CC4)c(OC)cc23)c(Cl)cc1Cl")
"inactive"
>>> label_value("COc1cccc2c1C(=O)c1c(O)c3c(c(O)c1C2=O)CC(O)(C(O)CO)CC3OC1CC(N2CCOCC2)C(O)C(C)O1 (configuration not stated)")
"active"
>>> label_value("CN[C@H](C#Cc1c(F)ccc2c1/C(=C/c1[nH]ccc1OC)C(=O)N2)CO")
"inactive"
>>> label_value("COc1ccc(-c2nc(-c3ccccc3)c(-c3ccccc3)[nH]2)cc1OC1CCCC1")
"inactive"
>>> label_value("COc1cc2c3c(n(CCCCN)c(=O)c2cc1OC)-c1cc2c(cc1C3=O)OCO2")
"inactive"
>>> label_value("CCN(Cc1ccc(F)cc1)c1ccc(CO)c(F)c1")
"active"
>>> label_value("CCC(C)[C@H]1O[C@]2(C=C[C@@H]1C)C[C@@H]1C[C@@H](C/C=C(\\C)[C@@H](OC3C[C@H](OC)C(O[C@H]4C[C@H](OC)[C@@H](O)[C@H](C)O4)[C@H](C)O3)[C@@H](C)/C=C/C=C3\\CO[C@@H]4[C@H](O)C(C)=C[C@@H](C(=O)O1)[C@]34O)O2 (some centres not stated)")
"inactive"
>>> label_value("CNCCCn1c2c(c3ccc([N+](=O)[O-])cc3c1=O)C(=O)c1cc(OC)cnc1-2")
"active"
>>> label_value("CCOC(=O)c1cc2c(n1Cc1cccc(OC)c1)-c1oncc1CCC2")
"inactive"
>>> label_value("Cc1cc(Cl)ccc1Nc1nc(C(F)(F)F)ccc1C(=O)N/N=C/c1ccc(Cl)cc1")
"inactive"
>>> label_value("CCCCC[C@H]1C/C=C2/C(=O)C=C[C@@H]2C/C=C\\CCCC(=O)O[C@@H](CCCCC)C/C=C2/C(=O)C=C[C@@H]2C/C=C\\CCCC(=O)O1")
"inactive"
>>> label_value("CCCc1cc(=O)[nH]c(-n2nc(C)cc2C)n1")
"inactive"
